Provenance of the data: patent US20210317231A1

- system.name: T1, human 5T4 oncofoetal antigen (human, UniProt Q13641 32-420)
- T1 construct: whole, on cells; also called hu 5T4; human 5T4 antigen
- T1 sequence (looked up): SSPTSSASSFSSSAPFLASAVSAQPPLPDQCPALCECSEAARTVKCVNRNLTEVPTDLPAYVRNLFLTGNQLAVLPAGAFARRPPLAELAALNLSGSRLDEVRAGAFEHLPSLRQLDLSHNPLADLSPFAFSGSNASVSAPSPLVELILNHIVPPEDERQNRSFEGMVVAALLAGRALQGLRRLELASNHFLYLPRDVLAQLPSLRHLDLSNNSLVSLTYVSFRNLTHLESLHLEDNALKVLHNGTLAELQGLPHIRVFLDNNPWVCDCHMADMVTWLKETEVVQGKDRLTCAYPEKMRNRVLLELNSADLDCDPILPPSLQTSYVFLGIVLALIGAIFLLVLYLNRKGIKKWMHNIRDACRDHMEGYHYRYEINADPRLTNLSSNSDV
- protocol.details: flow cytometry, PA-1 cells
assay.endpoint: EC50
Kindly format the answer as number then unit.

Sample chimeric anti-5T4 monoclonal antibody 899 (antibody, human IgG1, V domains shown) VH: QSVEESGGRLVTPGTPLTLTCTVSGFSLSSYTMSWVRQAPGKGLEYIGIISSSDGTWYANWVKGRFTISKTSTTVDLKMTSLTTEDTATYFCARDGTGNKYYTWDRLDLWGQGTLVTVSS VL: NIVMTQTPSPVSGAVGGTVTINCQASQSIYNELSWYQQKPGQPPKLLIYYASTLASGVSSRFKGSGSGTQFTLTISGVESVDAATYYCQQGYSSSNVDNVFGGGTEVVVK — what was its EC50?
0.05 µg/mL

Give its EC50 value. Item: chimeric anti-5T4 monoclonal antibody 829 (antibody, human IgG1, V domains shown) VH: QSLEESGGRLVTPGTPLTLTCTASGFSLSSYDMSWVRQAPGKGLEYIGWINSDDGAYYANWAKGRFTISRTSTTVDLKITSPTTEDTATYFCARDAGSTYLYGLDPWGPGTLVTVSS VL: DVVMTQTPSSVSAGVGGTVTIKCQASQSISSYLAWYQQKPGQRPKLLIYAASTLASGVSSRFKGSGSGTEYTLTINDLESADAATYYCQCTYYGGTYNTFGGGTEVVVK
0.07 µg/mL

Which value of EC50 has been reported for chimeric anti-5T4 monoclonal antibody 908 (antibody, human IgG1, V domains shown) VH: QSVEESGGRLVTPGTPLTLTCTVSGFSLSNFAMSWVRQAPGKGLEWIGIINGYGSIYYATWAKGRFTISKTSTTVDLKITSPTTEDTATYFCARGDAGRTYNHYFNIWGPGTLVTVSL VL: DVVMTQTPASVEAAVGGTVTIKCQASQSISSWLSWYQQKPGQRPKLLIYAASNLASGVPSRFKGSGSGTQFTLTISDLESDDAATYYCQQGYTSYNVDNAFGGGTEVVVK in the records?
0.04 µg/mL

Recorded EC50 for chimeric anti-5T4 monoclonal antibody 845 (antibody, human IgG1, V domains shown) VH: QSLEESGGRLVTPGTPLTLTCTVSGIDLSSYTMNWVRQAPGKGLEWIGVITSHNTYYASWAKGRFTISKTSTTVDLKITSPTTEDTATYFCARSNYGSTIYYMGGMDPWGPGTLVTVSS VL: DVVMTQTPASVSAAVGGTVTINCQASQSIGSYLAWYQHQPGQPPKLLIYSASTLESGVSSRFEGSRSGTEYTLTISDLDSADAATYYCQCTDYGASYLGAFGGGTEVVVK , please?
0.05 µg/mL

What does the data say about its EC50? Entry: chimeric anti-5T4 monoclonal antibody 834 (antibody, human IgG1, V domains shown) VH: QSVEESGGRLVTPGTPLTLTCTVSGFSLSTYSMSWVRQAPGKGLEWIGVISRGGSAYYASWAKGRFTISKTSTTVDLKVTSPTTEDTATYFCARGAISSGYYVYDGMDLWGPGTLVTVSS VL: DIVMTQTPGSVEAAVGGTVTIKCQASESISSYLAWYQQKPGQPPKFLIYSASTLASGVPSRFKGSGSGTEFTLTISDLESADAATYYCQCTDYGSDYMGAFGGGTGVVVK
0.05 µg/mL
